- target_entity: T1, Cyno CD33 full length, expressed on HEK293F cells (cynomolgus monkey)
- T1 construct: HEK293F cells transduced with lentivirus containing full length cyno CD33 (Genbank XP_005590138.1); also called cyCD33
- procedure_text: flow cytometry, HEK293F cells expressing cyno CD33
Would you mind telling me the reported MFI at 0.6 nM mAb of each entry?
Just the number in MFI, nothing appended.

What value of MFI at 0.6 nM mAb has been reported for the following binder? C33B101 (antibody, V domains shown, huIgG1 F405L; 260 is used; also called C33F106; C33H69/C4LL152) VH: QLQLQESGPGLVKPSETLSLTCTVSGGSISSSSYYWGWIRQPPGKGLDWIGSINYSGSTYYNPSLKSRVTISVDTSKIQFSLKLRSVTAADTAVYYCARLDGYESPFDYWGQGTLVTVSS VL: DIQMTQSPSSVSASVGDRVTITCRASQGISSWLAWYQQKPGKAPKLLIYAASSLQSGVPSRFSGSGSGTDFTLTISSLQPEDFATYYCQQANSFPFTFGPGTKVDIK
18000

What value of MFI at 0.6 nM mAb has been reported for the following binder? C33B82 (antibody, IgG1, V domains shown, huIgG1 F405L; also called C33F87; C33H78/C33L57) VH: QVQLVESGGGVVQPGRSLRLSCAASGFTFSSYGMHWVRQAPGKGLEWVAVISYDGSNKYYADSVKGRFTISRDNSKNTLFLQMNSLRAEDTAVYYCAKDFRYFDWLPPDSSSYYGMDVWGQGTTVTVSS VL: SYELTQPPSVSVSPGQTASITCSGDELGNKYACWYQQKPGQSPVVVVYQDRKRPSGIPERFSGSNFGNTATLTISGTQAMDEADYYCQAWDSSTVVFGGGTKLTVL
1540
